# Tested on: Plutella xylostella
# PROTOCOL DETAILS: Antifeedant activity against second-instar larval stage of Plutella xylostella (diamondback moth) in cabbage leaf disks assessed as consumed leaf area treated for 10 secs before larval infestation measured within 48 hr by non-choice leaf disc method
# Type: functional
METRIC NAME: AFC50 (µg/mL)
Numbers only, in µg/mL.

Below: 3 molecules and their reported AFC50.
C[C@@H]1O[C@@H](O[C@H]2[C@H](O[C@H]3CC[C@]4(C)[C@H]5CC=C6[C@@H]7CC(C)(C)CC[C@]7(C(=O)O)CC[C@@]6(C)[C@]5(C)CC[C@H]4C3(C)C)O[C@H](CO)[C@@H](O)[C@@H]2O[C@@H]2O[C@H](CO)[C@@H](O)[C@H](O)[C@H]2O)[C@H](O)[C@H](O)[C@H]1O [CATUNAROSIDE B]    369.63
CC1(C)CC[C@]2(C(=O)O[C@@H]3O[C@H](CO)[C@@H](O)[C@H](O)[C@H]3O)CC[C@]3(C)C(=CC[C@@H]4[C@@]5(C)CC[C@H](O[C@@H]6O[C@H](CO)[C@@H](O)[C@H](O[C@@H]7O[C@H](CO)[C@@H](O)[C@H](O)[C@H]7O)[C@H]6O[C@@H]6OC[C@@H](O)[C@H](O)[C@H]6O)C(C)(C)[C@@H]5CC[C@]43C)[C@@H]2[C@@H]1O [CATUNAROSIDE]    608.42
CC1(C)CC[C@]2(C(=O)O[C@@H]3O[C@H](CO)[C@@H](O)[C@H](O)[C@H]3O)CC[C@]3(C)C(=CC[C@@H]4[C@@]5(C)CC[C@H](O[C@@H]6O[C@H](CO)[C@@H](O)[C@H](O[C@@H]7O[C@H](CO)[C@@H](O)[C@H](O)[C@H]7O)[C@H]6O[C@@H]6OC[C@@H](O)[C@H](O)[C@H]6O)C(C)(C)[C@@H]5CC[C@]43C)[C@@H]2C1    335.54

Please look at the following molecule next.
# molecule CC1(C)CC[C@]2(C(=O)O)CC[C@]3(C)C(=CC[C@@H]4[C@@]5(C)CC[C@H](O[C@@H]6O[C@H](CO)[C@@H](O)[C@H](O[C@@H]7O[C@H](CO)[C@@H](O)[C@H](O)[C@H]7O)[C@H]6O[C@@H]6OC[C@@H](O)[C@H](O)[C@H]6O)C(C)(C)[C@@H]5CC[C@]43C)[C@@H]2[C@@H]1O [CATUNAROSIDE A] ; its AFC50 = 243.23

----------
For each entry below, report its AFC50 value.
# Tested on: Plutella xylostella
# PROTOCOL DETAILS: Antifeedant activity against second-instar larval stage of Plutella xylostella (diamondback moth) in cabbage leaf disks assessed as consumed leaf area treated for 10 secs before larval infestation measured within 48 hr by non-choice leaf disc method
# Format: functional
Answers are plain numbers, in µg/mL.

// known answers, use as guide
CC1(C)CC[C@]2(C(=O)O)CC[C@]3(C)C(=CC[C@@H]4[C@@]5(C)CC[C@H](O[C@@H]6O[C@H](CO)[C@@H](O)[C@H](O[C@@H]7O[C@H](CO)[C@@H](O)[C@H](O)[C@H]7O)[C@H]6O[C@@H]6OC[C@@H](O)[C@H](O)[C@H]6O)C(C)(C)[C@@H]5CC[C@]43C)[C@@H]2C1 [SWARTZIATRIOSIDE]    106.73
C[C@@H]1O[C@@H](O[C@H]2[C@H](O[C@H]3CC[C@]4(C)[C@H]5CC=C6[C@@H]7[C@H](O)C(C)(C)CC[C@]7(C(=O)O[C@@H]7O[C@H](CO)[C@@H](O)[C@H](O)[C@H]7O)CC[C@@]6(C)[C@]5(C)CC[C@H]4C3(C)C)O[C@H](CO)[C@@H](O)[C@@H]2O[C@@H]2O[C@H](CO)[C@@H](O)[C@H](O)[C@H]2O)[C@H](O)[C@H](O)[C@H]1O [CATUNAROSIDE C]    946.13

# evaluate next
The reported AFC50 of the molecule CC1(C)CC[C@]2(C(=O)O[C@@H]3O[C@H](CO)[C@@H](O)[C@H](O)[C@H]3O)CC[C@]3(C)C(=CC[C@@H]4[C@@]5(C)CC[C@H](O[C@@H]6O[C@H](CO)[C@@H](O)[C@H](O[C@@H]7O[C@H](CO)[C@@H](O)[C@H](O)[C@H]7O)[C@H]6O[C@@H]6O[C@H](CO)[C@@H](O)[C@H](O)[C@H]6O)C(C)(C)[C@@H]5CC[C@]43C)[C@@H]2C1 [ARALIA-SAPONIN V] was 5467.82

Data provenance: ChEMBL document CHEMBL3044781
